Values from patent US20250186403A1

assay: Pharmacokinetics in mice; type: in vivo; conditions: mouse; 40 mg/kg BW oral gavage, male C57BL/6 mice, plasma, mean ± S.D. n = 5
value kind: Cmax (ng/mL)
Please give a number only; it is taken to be in ng/mL.

Per the record, CNc1ccc2oc(C[C@H]3O[C@@]4(CC[C@H]3C)O[C@H]([C@H](C)C(=O)c3ccc[nH]3)[C@H](C)C[C@H]4C)nc2c1C(=O)O has Cmax of 301

====

target: Split-NanoLuc-Prp8 intein protein (Cryptococcus gattii)
Sequence (E6R027 entry or part of it): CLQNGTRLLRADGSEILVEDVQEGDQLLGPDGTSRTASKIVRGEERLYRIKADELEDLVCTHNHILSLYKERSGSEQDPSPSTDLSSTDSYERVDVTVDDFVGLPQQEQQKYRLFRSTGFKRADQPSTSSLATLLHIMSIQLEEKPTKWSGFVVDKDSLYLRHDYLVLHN
value kind: IC50

Simply: N.N.[Cl][Pt][Cl] [cisplatin] , Split-NanoLuc-Prp8 intein protein (Cryptococcus gattii), IC50 = 1410 nM
